Origin of the recorded values: paper PMC10901353

Here, each record is paired with measured IC50 data.
- SYSTEM TESTED: LAPTc (acidic M17 leucyl-aminopeptidase from T. cruzi) (Trypanosoma cruzi, UniProt V5BWE3)
- Sequence (V5BWE3 entry or part of it): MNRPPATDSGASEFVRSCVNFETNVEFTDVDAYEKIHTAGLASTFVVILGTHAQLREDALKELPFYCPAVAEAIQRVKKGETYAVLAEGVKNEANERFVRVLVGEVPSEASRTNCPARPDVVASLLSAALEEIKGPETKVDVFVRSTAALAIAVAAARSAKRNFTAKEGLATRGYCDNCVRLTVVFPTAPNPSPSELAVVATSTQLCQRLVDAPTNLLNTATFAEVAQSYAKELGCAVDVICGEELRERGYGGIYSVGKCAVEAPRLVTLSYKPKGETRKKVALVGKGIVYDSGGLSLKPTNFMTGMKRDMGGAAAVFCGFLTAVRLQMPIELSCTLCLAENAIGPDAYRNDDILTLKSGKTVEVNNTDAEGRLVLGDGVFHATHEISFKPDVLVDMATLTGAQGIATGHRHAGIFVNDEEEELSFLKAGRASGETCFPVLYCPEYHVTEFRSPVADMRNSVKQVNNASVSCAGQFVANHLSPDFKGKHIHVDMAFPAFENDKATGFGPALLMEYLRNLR
- ASSAY NOTES: Dose-response studies for LAPTc inhibition by RapidFire-MS
- Assay type: biochemical
- CONDITION INFO: average of four independent replicates; read-out: pIC50 +/- StDev (LAPTc) (converted)
QUANTITY NAME: IC50 (µM)

- CCCS(=O)(=O)c1ccc(NS(=O)(=O)c2sc3ccc(Cl)cc3c2C)cc1 [Compound 24]: 17.8
- COc1ccc(CC(=O)Nc2nc(-c3ccccn3)cs2)c(OC)c1 [Compound 12]: 25.1
- CC(C)C[C@H](NC(=O)[C@@H](O)[C@H](N)Cc1ccccc1)C(=O)O [bestatin, reference compound]: 0.24
- O=C(NCC(=O)N1CCc2ccccc2C1)C1CCCCC1 [Compound 9]: 28.8
- NC(=O)C1Cc2ccccc2CN1C(=O)Cc1cn2ccsc2n1 (stereo not drawn) [Compound 28]: 30.2
- N#CC(=Cc1cn(Cc2ccc(C(=O)O)o2)c2ccccc12)c1nc2ccccc2[nH]1 [Compound 15]: 22.9

---

- SYSTEM TESTED: LAPTc (acidic M17 leucyl-aminopeptidase from T. cruzi) (Trypanosoma cruzi, UniProt V5BWE3)
- ASSAY NOTES: Dose-response studies for LAPTc inhibition by RapidFire-MS
- Type: biochemical
- CONDITION INFO: Initial hit confirmation, single replicate; read-out: Maximum Effect
- Description: This assay was previously described. The assay was performed in 384-well clear F-bottom polypropylene plates with a final reaction volume of 15 μL. The reaction mixture contained 7.5 μL LAPTc in 50 mM Tris-HCl, pH 7.5, 0.005% NP-40 and 7.5 μL LSTVIVR peptide substrate (Cambridge Research Biochemicals, Billingham, UK) in the same buffer was added to start the reaction. […]
QUANTITY NAME: Emax (%)

• CCCS(=O)(=O)c1ccc(NS(=O)(=O)c2sc3ccc(Cl)cc3c2C)cc1 = 96
• Nc1[nH]cnc1-c1nc(-c2ccccc2)cs1 = 90
• c1ccc(Cc2ccc(OCCn3ccnc3)cc2)cc1 = 77
• NC(=O)C1Cc2ccccc2CN1C(=O)Cc1cn2ccsc2n1 (centres unmarked) = 87
• N#CC(=Cc1cn(Cc2ccc(C(=O)O)o2)c2ccccc12)c1nc2ccccc2[nH]1 = 92
• Cc1ccc2nc(-c3ccc(NS(=O)(=O)c4cc(C(=O)O)c(Cl)cc4Cl)cc3)sc2c1 = 96
• Cn1ccnc1C(NS(=O)(=O)c1ccc(C#N)cc1)c1cccc(F)c1 (centres unmarked) = 89
• CC1c2ccsc2CCN1C(=O)c1ccc(-n2cnnn2)cc1 (centres unmarked) = 77
• COc1ccc(CC(=O)Nc2nc(-c3ccccn3)cs2)c(OC)c1 = 84
• O=C(NCC(=O)N1CCc2ccccc2C1)C1CCCCC1 = 54
• O=C(CN1NS(=O)(=O)c2ccccc2C1=O)NCCc1ccccc1 = 68

---

- ASSAY NOTES: Cytotoxicity assay on human HepG2 cells (resazurin)
- Type: cell-based
- CONDITION INFO: human; 72 h, two independent experiments; read-out: pCC50 (HepG2) (converted)
QUANTITY NAME: CC50 at 72 h

• N#CC(=Cc1cn(Cc2ccc(C(=O)O)o2)c2ccccc12)c1nc2ccccc2[nH]1 = > 100 µM

---

- SYSTEM TESTED: LAPTc (acidic M17 leucyl-aminopeptidase from T. cruzi) (Trypanosoma cruzi)
- ASSAY NOTES: Dose-response studies for LAPTc inhibition by RapidFire-MS
- Assay type: biochemical
- CONDITION INFO: pIC50 +/- StDev (LAPTc), average of four independent replicates
pIC50: −log10 of the molar value.
QUANTITY NAME: pIC50

- COc1ccc2oc(C(=O)Nc3nc(-c4ccccn4)cs3)c(C)c2c1 [Compound 4]: 6.36

---

- ASSAY NOTES: Cytotoxicity assay on human HepG2 cells (resazurin)
- Assay type: cell-based
- CONDITION INFO: human, HepG2 cells, 72 h; read-out: CC50 (HepG2)
QUANTITY NAME: CC50 at 72 h (µM)

• c1ccc(Cc2ccc(OCCn3ccnc3)cc2)cc1 = 43

---

- SYSTEM TESTED: LAPTc (acidic M17 leucyl-aminopeptidase from T. cruzi) (Trypanosoma cruzi)
- ASSAY NOTES: Dose-response studies for LAPTc inhibition by RapidFire-MS
- Format: biochemical
- CONDITION INFO: Initial hit confirmation, single replicate
QUANTITY NAME: Hill Slope

* CC1c2ccsc2CCN1C(=O)c1ccc(-n2cnnn2)cc1 (stereo not drawn) | 1.7
* N#CC(=Cc1cn(Cc2ccc(C(=O)O)o2)c2ccccc12)c1nc2ccccc2[nH]1 | 1.5
* COc1ccc2oc(C(=O)Nc3nc(-c4ccccn4)cs3)c(C)c2c1 | 2.5
* COc1ccc(CC(=O)Nc2nc(-c3ccccn3)cs2)c(OC)c1 | 2.1
* NC(=O)C1Cc2ccccc2CN1C(=O)Cc1cn2ccsc2n1 (stereo not drawn) | 0.9
* c1ccc(Cc2ccc(OCCn3ccnc3)cc2)cc1 | 1.3
* CCCS(=O)(=O)c1ccc(NS(=O)(=O)c2sc3ccc(Cl)cc3c2C)cc1 | 2.4
* Nc1[nH]cnc1-c1nc(-c2ccccc2)cs1 | 1.2
* O=C(NCC(=O)N1CCc2ccccc2C1)C1CCCCC1 | 1.7
* Cc1ccc2nc(-c3ccc(NS(=O)(=O)c4cc(C(=O)O)c(Cl)cc4Cl)cc3)sc2c1 | 1.2
* O=C(CN1NS(=O)(=O)c2ccccc2C1=O)NCCc1ccccc1 | 0.543
* Cn1ccnc1C(NS(=O)(=O)c1ccc(C#N)cc1)c1cccc(F)c1 (stereo not drawn) | 1.0

---

- SYSTEM TESTED: LAPTc (acidic M17 leucyl-aminopeptidase from T. cruzi) (Trypanosoma cruzi, UniProt V5BWE3)
- ASSAY NOTES: Dose-response studies for LAPTc inhibition by RapidFire-MS
- Format: biochemical
- CONDITION INFO: average of four independent replicates; read-out: pIC50 +/- StDev (LAPTc) (converted)
Label key: met means IC50 under 10 µM; not met means IC50 of 10 µM or more.

- CC1c2ccsc2CCN1C(=O)c1ccc(-n2cnnn2)cc1 (centres unmarked): not met
- Cc1ccc2nc(-c3ccc(NS(=O)(=O)c4cc(C(=O)O)c(Cl)cc4Cl)cc3)sc2c1: met
- c1ccc(Cc2ccc(OCCn3ccnc3)cc2)cc1: not met
- Nc1[nH]cnc1-c1nc(-c2ccccc2)cs1: met

---

- SYSTEM TESTED: LAPTc (acidic M17 leucyl-aminopeptidase from T. cruzi) (Trypanosoma cruzi, UniProt V5BWE3)
- ASSAY NOTES: Dose-response studies for LAPTc inhibition by RapidFire-MS
- Type: biochemical
- CONDITION INFO: Initial hit confirmation, single replicate; read-out: pIC50 (converted)
Label key: label 1 means IC50 under 20 µM; label 0 means IC50 of 20 µM or more.

• CCCS(=O)(=O)c1ccc(NS(=O)(=O)c2sc3ccc(Cl)cc3c2C)cc1 = label 0
• NC(=O)C1Cc2ccccc2CN1C(=O)Cc1cn2ccsc2n1 (centres unmarked) = label 1
• CC1c2ccsc2CCN1C(=O)c1ccc(-n2cnnn2)cc1 (centres unmarked) = label 0
• c1ccc(Cc2ccc(OCCn3ccnc3)cc2)cc1 = label 0
• Nc1[nH]cnc1-c1nc(-c2ccccc2)cs1 = label 1
• N#CC(=Cc1cn(Cc2ccc(C(=O)O)o2)c2ccccc12)c1nc2ccccc2[nH]1 = label 1
• Cn1ccnc1C(NS(=O)(=O)c1ccc(C#N)cc1)c1cccc(F)c1 (centres unmarked) = label 1
• O=C(NCC(=O)N1CCc2ccccc2C1)C1CCCCC1 = label 1
• Cc1ccc2nc(-c3ccc(NS(=O)(=O)c4cc(C(=O)O)c(Cl)cc4Cl)cc3)sc2c1 = label 1

---

- System: intracellular T. cruzi amastigotes
- ASSAY NOTES: T. cruzi intracellular assay (high-content imaging, infected Vero cells)
- Format: cell-based, Trypanosoma cruzi
- CONDITION INFO: Trypanosoma cruzi, Vero, individual replicates; read-out: pEC50 (T. cruzi) (converted)
QUANTITY NAME: EC50

• NC(=O)C1Cc2ccccc2CN1C(=O)Cc1cn2ccsc2n1 (centres unmarked) [Compound 28] = > 50.1 µM
• CC1c2ccsc2CCN1C(=O)c1ccc(-n2cnnn2)cc1 (centres unmarked) [Compound 2] = > 50.1 µM
• O=C(CN1NS(=O)(=O)c2ccccc2C1=O)NCCc1ccccc1 [Compound 6] = > 50.1 µM
• c1ccc(Cc2ccc(OCCn3ccnc3)cc2)cc1 [Compound 13] = 1.58 µM
• COc1ccc(CC(=O)Nc2nc(-c3ccccn3)cs2)c(OC)c1 [Compound 12] = 7.94 µM
• N#CC(=Cc1cn(Cc2ccc(C(=O)O)o2)c2ccccc12)c1nc2ccccc2[nH]1 [Compound 15] = > 50.1 µM
• COc1ccc2oc(C(=O)Nc3nc(-c4ccccn4)cs3)c(C)c2c1 [Compound 4] = 0.631 µM
• Cn1ccnc1C(NS(=O)(=O)c1ccc(C#N)cc1)c1cccc(F)c1 (centres unmarked) [Compound 8] = > 50.1 µM
• Cc1ccc2nc(-c3ccc(NS(=O)(=O)c4cc(C(=O)O)c(Cl)cc4Cl)cc3)sc2c1 [Compound 5] = > 50.1 µM
• O=C(NCC(=O)N1CCc2ccccc2C1)C1CCCCC1 [Compound 9] = > 50.1 µM
• Nc1[nH]cnc1-c1nc(-c2ccccc2)cs1 [Compound 7] = 31.6 µM
